Values were extracted from ChEMBL document CHEMBL1138495.

Test system: Bovine viral diarrhea virus 1
Procedure Details: Antiviral activity against Bovine viral diarrhea virus infected in MDBK cells assessed as inhibition of virus-induced cytopathic effect after 4 to 5 days by microscopy
Type: functional, organism-based
Particulars: Bovine viral diarrhea virus isolates and strains
# reported EC50; entries follow

# Sample Smiles, Rel, EC50, µg/mL
rows = [
    ("COc1cc(O)c2c(=O)c3cc(N)c(N4CCN(c5ccccn5)CC4)cc3n(C)c2c1", "=", 4),
    ("COc1cc(OC)c2c(=O)c3cc(N)c(Cl)cc3n(C)c2c1", ">", 100),
    ("COc1cc(O)c2c(=O)c3cc(N)c(Cl)cc3n(C)c2c1", "=", 0.7),
    ("COc1cc(OC)c2c(=O)c3cc(N)c(N4CCN(c5ccccn5)CC4)cc3n(C)c2c1", ">", 100),
    ("Cn1c2cc(Cl)c(N)cc2c(=O)c2c(O)cc(O)cc21", "=", 0.4),
    ("Cn1c2cc(N3CCN(c4ccccn4)CC3)c(N)cc2c(=O)c2c(O)cc(O)cc21", "=", 0.5),
]

---

Tested on: Hepacivirus hominis
Procedure Details: Inhibition of HCV recombinant NS5B RNA polymerase expressed in Escherichia coli up to 100 uM by liquid scintillation counter
Calls of active or inactive are those of the source. No cut-off for these calls is given here.
Measured Quantity: Activity

# Sample Smiles, System Tested, Observed
data = [
    ("Cn1c2cc(Cl)c(N)cc2c(=O)c2c(O)cc(O)cc21", "Hepacivirus hominis", "inactive"),
    ("CCn1c2cc(Cl)c(N)cc2c(=O)c2c(O)cc(O)cc21", "Hepacivirus hominis", "inactive"),
    ("COc1ccc(C(=O)c2ccc(N3CCN(c4ccccn4)CC3)c(N)c2)c(OC)c1", "Hepacivirus hominis", "inactive"),
    ("COc1cc(OC)c2c(=O)c3cc(N)c(N4CCN(c5ccncc5)CC4)cc3n(C)c2c1", "Hepacivirus hominis", "inactive"),
    ("CCn1c2cc(N3CCN(c4ccccn4)CC3)c(N)cc2c(=O)c2c(OC)cc(OC)cc21", "Hepacivirus hominis", "inactive"),
    ("COc1cc(OC)c2c(=O)c3cc(N)c(Cl)cc3[nH]c2c1", "Hepacivirus hominis", "inactive"),
    ("COc1cc(OC)c2c(=O)c3cc(N)c(Cl)cc3n(CCC(C)C)c2c1", "Hepacivirus hominis", "inactive"),
    ("COc1cc(OC)c2c(=O)c3cc(N)c(OC)cc3n(C)c2c1", "Hepacivirus hominis", "inactive"),
    ("COc1ccc2c(=O)c3cc(N)c(N4CCN(c5ccccn5)CC4)cc3n(C)c2c1", "Hepacivirus hominis", "inactive"),
    ("COc1cc(O)c2c(=O)c3cc(N)c(OC)cc3n(C)c2c1", "Hepacivirus hominis", "inactive"),
    ("COc1cc(OC)c2c(=O)c3cc(N)c(N4CCN(c5nc6ccccc6o5)CC4)cc3n(C)c2c1", "Hepacivirus hominis", "inactive"),
    ("COc1cc(OCC(C)C)c2c(=O)c3cc(N)c(N4CCN(c5ccccn5)CC4)cc3n(C)c2c1", "Hepacivirus hominis", "inactive"),
    ("Cn1c2cc(N3CCN(c4ccccn4)CC3)c(N)cc2c(=O)c2c(O)cc(O)cc21", "Hepacivirus hominis", "inactive"),
    ("COc1cc(OC)c2c(=O)c3cc(N)c(N4CCN(c5ccccn5)CC4)cc3n(C)c2c1", "Hepacivirus hominis", "inactive"),
    ("COc1cc(OC)c2c(=O)cc(-c3ccc(N4CCN(c5ccccn5)CC4)c(N)c3)n(C)c2c1", "Hepacivirus hominis", "inactive"),
    ("COc1cc(OC)c2c(=O)c3cc(N)c(N4CCN(c5nccs5)CC4)cc3n(C)c2c1", "Hepacivirus hominis", "inactive"),
    ("COc1cc(OC)cc(N(C)c2cc(N3CCN(c4ccccn4)CC3)c(N)cc2C(=O)O)c1", "Hepacivirus hominis", "inactive"),
    ("COc1cc2c(=O)c3cc(N)c(N4CCN(c5ccccn5)CC4)cc3n(C)c2cc1OC", "Hepacivirus hominis", "inactive"),
    ("COc1cc(OC)c2c(=O)c3cc(N)c(N4CCN(c5ccccn5)CC4)cc3[nH]c2c1", "Hepacivirus hominis", "inactive"),
]

---

Procedure Details: Cytostatic activity against human HuH5.2 after 3 days by MTS/PMS assay
Format: ADME, Huh-5-2
Particulars: HuH5.2 cells
# reported log10 of CC50 at 72 h; entries follow
Measured Quantity: log10 of CC50 at 72 h (log10 of the value in µg/mL)

# Sample Smiles, Measured Quantity, Observed
records = [
    ("COc1cc2c(=O)c3cc(N)c(N4CCN(c5ccccn5)CC4)cc3n(C)c2cc1OC", "log10 of CC50 at 72 h", 1.15),
    ("COc1cc(O)c2c(=O)c3cc(N)c(N4CCN(c5ccccc5)CC4)cc3n(C)c2c1", "log10 of CC50 at 72 h", 0.93),
    ("COc1cc(OC)c2c(=O)c3cc(N(C)C)c(N4CCN(c5ccccn5)CC4)cc3n(C)c2c1", "log10 of CC50 at 72 h", 0.48),
    ("Cn1c2ccccc2c(=O)c2cc(N)c(N3CCN(c4ccccn4)CC3)cc21", "log10 of CC50 at 72 h", 1.46),
    ("CCn1c2cc(Cl)c(N)cc2c(=O)c2c(OC)cc(OC)cc21", "log10 of CC50 at 72 h", 1.15),
    ("Cn1c2cc(Cl)c(N)cc2c(=O)c2c(O)cc(O)cc21", "log10 of CC50 at 72 h", 0.48),
    ("COc1cc(OC)c2c(=O)c3cc(N)c(N4CCN(c5ccccn5)CC4)cc3n(C)c2c1", "log10 of CC50 at 72 h", 1.70),
    ("COc1ccc2c(=O)c3cc(N)c(N4CCN(c5ccccn5)CC4)cc3n(C)c2c1", "log10 of CC50 at 72 h", 1.04),
    ("COc1cc(OC)c2c(=O)c3cc(N)c(N4CCN(c5ccccn5)CC4)cc3n(CCC(C)C)c2c1", "log10 of CC50 at 72 h", 1.00),
    ("COc1cc(OC)c2c(=O)c3cc(N)c(N4CCN(c5ccccn5)CC4)cc3[nH]c2c1", "log10 of CC50 at 72 h", 1.28),
    ("COc1cc2c(cc1N)c(=O)c1c(O)cc(O)cc1n2C", "log10 of CC50 at 72 h", 1.41),
    ("Nc1cc2c(=O)c3c(O)cc(O)cc3[nH]c2cc1Cl", "log10 of CC50 at 72 h", 1.40),
    ("COc1cc(OC)cc(N(C)c2ccc(N)c(N3CCN(c4ccccn4)CC3)c2)c1", "log10 of CC50 at 72 h", 0.86),
    ("COc1cccc2c1c(=O)c1cc(N)c(N3CCN(c4ccccn4)CC3)cc1n2C", "log10 of CC50 at 72 h", 1.45),
    ("CCn1c2cc(N3CCN(c4ccccn4)CC3)c(N)cc2c(=O)c2c(OC)cc(OC)cc21", "log10 of CC50 at 72 h", 1.04),
    ("Cn1c2cc(N3CCN(c4ccccn4)CC3)c(N)cc2c(=O)c2c(O)cc(O)cc21", "log10 of CC50 at 72 h", 1.32),
    ("Cn1c2cc(N3CCN(c4ccccc4)CC3)c(N)cc2c(=O)c2c(O)cc(O)cc21", "log10 of CC50 at 72 h", 1.21),
    ("COc1cc(OC)c2c(=O)c3cc(N)c(Cl)cc3[nH]c2c1", "log10 of CC50 at 72 h", 1.11),
]

---

# reported CC50 at 72 h; entries follow
Procedure Details: Cytotoxicity against MDBK cells after 3 days by MTS/PMS method
Assay type: cell-based, Bos taurus
Particulars: cattle
Measured Quantity: CC50 at 72 h (µg/mL)

# Sample Smiles, Measured Quantity, Readout Unit, Rel, Observed
measured = [
    ("COc1cc(O)c2c(=O)c3cc(N)c(N4CCN(c5ccccn5)CC4)cc3n(C)c2c1", "CC50 at 72 h", "µg/mL", ">", 100),
    ("COc1cc(OC)c2c(=O)c3cc(N)c(N4CCN(c5ccccn5)CC4)cc3n(C)c2c1", "CC50 at 72 h", "µg/mL", ">", 100),
    ("Cn1c2cc(N3CCN(c4ccccn4)CC3)c(N)cc2c(=O)c2c(O)cc(O)cc21", "CC50 at 72 h", "µg/mL", ">", 100),
    ("COc1cc(O)c2c(=O)c3cc(N)c(Cl)cc3n(C)c2c1", "CC50 at 72 h", "µg/mL", "=", 14),
    ("Cn1c2cc(Cl)c(N)cc2c(=O)c2c(O)cc(O)cc21", "CC50 at 72 h", "µg/mL", "=", 5),
    ("COc1cc(OC)c2c(=O)c3cc(N)c(Cl)cc3n(C)c2c1", "CC50 at 72 h", "µg/mL", "=", 20),
]
